This collection of values is drawn from patent US20120214847A1.

Target: human GR (Homo sapiens, UniProt P04150)
Construct: naturally expresses the human GR; endogenous in cells
Sequence (P04150 whole entry): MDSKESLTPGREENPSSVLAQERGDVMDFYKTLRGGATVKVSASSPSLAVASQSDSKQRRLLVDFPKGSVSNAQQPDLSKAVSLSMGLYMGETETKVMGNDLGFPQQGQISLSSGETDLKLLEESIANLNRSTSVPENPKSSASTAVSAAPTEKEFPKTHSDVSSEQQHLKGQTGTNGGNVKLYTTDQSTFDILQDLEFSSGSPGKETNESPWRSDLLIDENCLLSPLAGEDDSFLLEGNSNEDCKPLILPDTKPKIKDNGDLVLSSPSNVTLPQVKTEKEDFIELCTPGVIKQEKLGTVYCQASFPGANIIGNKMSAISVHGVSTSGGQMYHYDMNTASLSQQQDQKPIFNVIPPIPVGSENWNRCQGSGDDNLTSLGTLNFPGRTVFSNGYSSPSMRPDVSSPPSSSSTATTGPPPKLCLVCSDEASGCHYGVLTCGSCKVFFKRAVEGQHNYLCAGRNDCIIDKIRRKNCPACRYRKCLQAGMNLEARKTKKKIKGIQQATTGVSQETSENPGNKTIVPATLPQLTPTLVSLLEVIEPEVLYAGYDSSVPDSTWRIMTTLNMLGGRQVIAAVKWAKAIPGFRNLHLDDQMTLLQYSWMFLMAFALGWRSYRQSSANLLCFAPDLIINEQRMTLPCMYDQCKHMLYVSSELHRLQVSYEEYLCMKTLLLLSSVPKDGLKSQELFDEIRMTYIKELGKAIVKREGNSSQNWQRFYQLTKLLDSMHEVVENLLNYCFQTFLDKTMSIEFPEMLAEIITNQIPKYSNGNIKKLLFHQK
Assay: Trans-activation modulation of glucocorticoid receptor (GRAMMER), MMTV-LUC reporter in A549 cells
Type: cell-based
Settings: A549 cells; IP = inflection point; read-out: Transactivation A549 Cells Grammer IP
attributeMeasured: log10 of EC50 (log10 of the value in nM)

compound="CC[C@]12Cc3cnn(-c4ccccc4)c3C=C1CC[C@@]2(O)CC(O)c1cc(C#N)ccn1 (stereo partly shown) [Example 75]" endpointresult=2.03
compound="OC(C[C@]1(O)CCC2=Cc3c(cnn3-c3ccc(F)cc3)C[C@@]21C1CC1)c1ccc(F)cn1 (single isomer, unassigned) [Example 79b]" endpointresult=1.66
compound="NC(=O)c1c(C(F)(F)F)ccnc1CC[C@]1(O)CCC2=Cc3c(cnn3-c3ccc(F)cc3)C[C@@]21C1CC1 [Example 55]" endpointresult=0.85
compound="CC[C@]12Cc3cnn(-c4cccnc4)c3C=C1CC[C@@]2(O)CCc1ccccc1C(N)=O [Example 13]" endpointresult=2.35
compound="CC[C@]12Cc3cnn(-c4ccc(F)cc4)c3C=C1CC[C@@]2(O)CCc1nccc(OC)c1C(F)C(N)=O (stereo partly shown) [Example 65]" endpointresult=2.24
compound="CC[C@]12Cc3cnn(-c4ccc(F)cc4)c3C=C1CC[C@@]2(O)CCc1cccc(OC)c1C(N)=O [Example 37]" endpointresult=1.00
compound="NC(=O)C(O)c1ccccc1CC[C@]1(O)CCC2=Cc3c(cnn3-c3ccc(F)cc3)C[C@@]21C1CC1 (single isomer, unassigned) [Example 3a]" endpointresult=2.10
